Consider the following compounds and their measured pEC50 readings.
Tested on: Influenza A virus
Test: Antiviral activity against Influenza A virus (A/Puerto Rico/8/34(H1N1)) harboring M2 channel S31N and V27T mutant infected in MDCK cells assessed as reduction of cytopathic effect after 72 hrs by MTS assay
Assay type: functional, organism-based, A/Puerto Rico/8/1934(H1N1)
pEC50: −log10 of the molar value.

The examples below pair each entry with its known result.
CC12CC34CN(C(=N)N)CC3(C1)CC2(C)C4 = < 4.00
C1CCC23CC45CNCC4(CC2(C1)C5)C3 = < 4.00
NC12CC3CC(CC(C3)C1)C2 [AMANTADINE] = 4.42
CC12CC34CNCC3(C1)CC2(C)C4 = < 4.00
N=C(N)N1CC23CC4CC2(CC4C3)C1 = < 4.30
CC(N)C12CC3CC(CC(C3)C1)C2 (configuration not stated) [RIMANTADINE] = 5.37
CN1CC23CC4(C)CC2(C1)CC4(C)C3 = < 4.00
CCC12CC34CNCC3(C1)CC2(CC)C4 = < 4.00
CN1CC23CC4CC2(CC4C3)C1 = < 4.00
C1NCC23CC4CC12CC4C3 = < 4.00

Which measured pEC50 belongs to N=C(N)N1CC23CC45CCCCC4(C2)CC3(C1)C5 , tested on Influenza A virus?
< 4.00

# get_value(readout= pEC50, system= Influenza A virus) for CCC12CC34CN(C(=N)N)CC3(C1)CC2(CC)C4
< 4.00

###

Test system: Influenza A virus
Assay: Antiviral activity against Influenza A virus (A/Puerto Rico/8/34(H1N1)) harboring M2 channel S31N and V27T mutant infected in MDCK cells assessed as reduction of cytopathic effect after 72 hrs by microsocopic analysis
Type: functional, organism-based, A/Puerto Rico/8/1934(H1N1)
MEASUREMENT_KIND: EC50

C1CCC23CC45CNCC4(CC2(C1)C5)C3 = > 100 µM
C1NCC23CC4CC12CC4C3 = > 100 µM
CN1CC23CC4(C)CC2(C1)CC4(C)C3 = > 100 µM
NC12CC3CC(CC(C3)C1)C2 = 34 µM
CCC12CC34CNCC3(C1)CC2(CC)C4 = > 100 µM
CC12CC34CN(C(=N)N)CC3(C1)CC2(C)C4 = > 100 µM

Which EC50 is reported for this compound? CC(N)C12CC3CC(CC(C3)C1)C2 (configuration not stated)
18 µM

GET /values?readout=EC50&item= CC12CC34CNCC3(C1)CC2(C)C4
> 100 µM

Query (compound): N=C(N)N1CC23CC45CCCCC4(C2)CC3(C1)C5 ; field requested: EC50
> 100 µM

Entry under review: CCC12CC34CN(C(=N)N)CC3(C1)CC2(CC)C4 . Reported EC50?
> 100 µM

// lookup EC50 for N=C(N)N1CC23CC4CC2(CC4C3)C1
> 50 µM

// returns reported EC50 for input CN1CC23CC4CC2(CC4C3)C1
> 100 µM

###

EC50 values, listed per item
Test system: Influenza B virus
Experiment: Antiviral activity against Influenza B virus (B/Hong Kong/05/1972) harboring wild type M2 channel infected in MDCK cells assessed as reduction of cytopathic effect after 72 hrs by MTS assay
Format: functional, cell-based
Conditions: B/Hong Kong/05/1972, MDCK

Check out these entries, answers already filled in.
C1CCC23CC45CNCC4(CC2(C1)C5)C3 = > 100 µM
N=C(N)N1CC23CC4CC2(CC4C3)C1 = > 50 µM
N=C(N)N1CC23CC45CCCCC4(C2)CC3(C1)C5 = > 100 µM
CCC12CC34CN(C(=N)N)CC3(C1)CC2(CC)C4 = > 100 µM

Turning now to a further molecule:
For Influenza B virus, provide EC50 of CN1CC23CC4(C)CC2(C1)CC4(C)C3 please.
> 100 µM

Reference for the values: ChEMBL document CHEMBL3085678
